- assayName: in vivo
- testSettings: ICR, mouse, plasma, po, 30 mg/kg
# AUC(0-t) values compiled below
observedProperty: AUC(0-t) (ng·h/mL)

smilesNotation | quantityUnit | number
COc1ncc(-c2cc(O[C@@H]3CCOC3)c3nc(N)nc(C)c3c2)cc1NS(=O)(=O)c1ccc(F)cc1F | ng·h/mL | 8690
CNc1nc(C)c2cc(-c3cnc(OC)c(NS(=O)(=O)c4ccc(F)cc4F)c3)cc(OC3CCOCC3)c2n1 | ng·h/mL | 15500
CNc1nc(C)c2cc(-c3cnc(OC)c(NS(=O)(=O)c4ccc(F)cc4F)c3)cc(O[C@@H]3CCOC3)c2n1 | ng·h/mL | 11400
